Consider the following compounds and their measured inhibition readings.
Target: Pancreatic triacylglycerol lipase (Sus scrofa)
Assay: Inhibition of porcine pancreatic lipase at 100 ug/ml pre-incubated for 15 mins before p-nitrophenylbutyrate substrate addition by microplate reader based method
Write the value in % as a bare number.

Some solved cases for reference:
compound=O=C1c2c(cc(O)c(O)c2O)O[C@H](c2ccc(O)cc2)[C@H]1O attribute_measured=inhibition result=40.1
compound="O=C1c2c(O)cc(O)cc2O[C@H](c2ccc(O)cc2)[C@H]1O [DIHYDROKAEMPFEROL]" attribute_measured=inhibition result=10.8
compound=COc1ccc(-c2coc3cc(O)cc(O)c3c2=O)cc1 attribute_measured=inhibition result=6.1
compound=CC1(C)C=Cc2c(cc3occc(=O)c3c2O)O1 attribute_measured=inhibition result=27.5
compound=O=c1c(-c2ccc(O)cc2)coc2cc(O)cc(O)c12 attribute_measured=inhibition result=3.2
compound="CC(C)=CCc1c(O)cc(O)c2c1OC(c1ccc(O)cc1)CC2=O (stereo not drawn)" attribute_measured=inhibition result=55.5

inhibition reported for this compound `CC(C)=CCc1c(O)cc2c(c1O)C(=O)C[C@@H](c1cc3c(cc1O)OC(C)(C)C=C3)O2` : 81.4

inhibition reported for this compound `CC(C)=CCc1c(O)cc2occ(-c3ccc(O)cc3)c(=O)c2c1O` : 49.6

inhibition reported for this compound `CC(C)=CCc1c(O)c(Cc2ccc(O)cc2)c(O)c2c1O[C@H](c1ccc(O)cc1)CC2=O` : 70.1

inhibition reported for this compound `CC(C)(O)CCc1c(O)cc(O)c2c1O[C@@H](c1cc3c(cc1O)OC(C)(C)C=C3)CC2=O` : 52

inhibition reported for this compound `O=c1c(O)c(-c2ccc(O)cc2)oc2cc(O)cc(O)c12` : 37

inhibition reported for this compound `O=c1c(O)c(-c2ccc(O)cc2O)oc2cc(O)cc(O)c12` : 26.3

inhibition reported for this compound `O=C1C[C@@H](c2ccc(O)cc2)Oc2cc(O)cc(O)c21` : 25.2
